- Test system: Staphylococcus aureus
- Procedure details: Antimicrobial activity against Staphylococcus aureus DSM 1104 after 48 hr by two-fold serial broth dilution method
- Type: functional
- Measurement conditions: DSM 1104, 48 h
Assay endpoint: MIC (µg/mL)
Give the number; µg/mL is assumed, so skip it.

# annotated cases, reported MIC shown
Compound: COc1ccc(OC)c(/C=C/c2nnc(Nc3ccccc3)s2)c1
Scale unit: µg/mL
MIC: 50
//
Compound: COc1ccc(OC)c(/C=C/c2nnc(Nc3ccc(C)cc3)o2)c1
Scale unit: µg/mL
MIC: 100
//
Compound: COc1ccc(OC)c(/C=C/c2nnc(SC)n2-c2ccc(C)cc2)c1
Scale unit: µg/mL
MIC: 50

Alright, here's another compound for you.
Please give the documented MIC of `COc1ccc(OC)c(/C=C/C(=O)N/N=C/c2ccc(Cl)cc2)c1` 100

---

- Test system: HL-60(TB)
- Procedure details: Anticancer activity against Homo sapiens (human) HL-60(TB) cells after 48 hr by SRB assay
- Type: functional
- Measurement conditions: HL-60, 48 h
Parameter: TGI. Scope: all listed entries.
Give the number; µM is assumed, so skip it.

Compound: COc1ccc(OC)c(/C=C/C(=O)N/N=C/c2ccccc2)c1
Result value: 13.7

Alright, here's another compound for you.
Please give the documented TGI of `COc1ccc(OC)c(/C=C/C(=O)N/N=C/c2ccc(Cl)cc2)c1` 0.483

---

Parameter: GI50. Scope: all listed entries.
- Tested on: SF-539
- Procedure details: Anticancer activity against Homo sapiens (human) SF539 cells after 48 hr by SRB assay
- Assay type: functional
- Measurement conditions: SF-539, 48 h

Compound: COc1ccc(OC)c(/C=C/c2nnc(Nc3ccc(Cl)cc3)o2)c1
Experimental system: SF-539
GI50: 11.8 µM
--
Compound: COc1ccc(OC)c(/C=C/C(=O)N/N=C/c2ccccc2)c1
Experimental system: SF-539
GI50: 4.42 µM
--
Compound: COc1ccc(OC)c(/C=C/C(=O)N/N=C/c2ccc(Cl)cc2)c1
Experimental system: SF-539
GI50: 0.258 µM

Please give the documented GI50 of `COc1ccc(OC)c(/C=C/c2nnc(S)n2-c2ccc(Cl)cc2)c1` 4.05 µM

---

Parameter: inhibition of growth at 10 µM. Scope: all listed entries.
- Test system: K562
- Procedure details: Growth inhibition of Homo sapiens (human) K562 cells at 10 uM after 48 hr by SRB assay
- Format: functional
- Measurement conditions: K562, 48 h, read-out: GI
Give the number; % is assumed, so skip it.

# annotated cases, reported inhibition of growth at 10 µM shown
Compound: COc1ccc(OC)c(/C=C/C(=O)N/N=C/c2ccccc2)c1
Result value: 78.8
--
Compound: COc1ccc(OC)c(/C=C/c2nnc(S)n2-c2ccc(Cl)cc2)c1
Result value: 77.6
--
Compound: COc1ccc(OC)c(/C=C/c2nnc(SC)n2-c2ccc(Cl)cc2)c1
Result value: 69.3

Please give the documented inhibition of growth at 10 µM of `COc1ccc(OC)c(/C=C/C(=O)N/N=C/c2ccc(Cl)cc2)c1` 86

---

- System: NCI-H322M
- Procedure details: Anticancer activity against Homo sapiens (human) NCI-H322M cells after 48 hr by SRB assay
- Assay type: functional
Parameter: GI50. Scope: all listed entries.
Give the number; µM is assumed, so skip it.

# annotated cases, reported GI50 shown
Compound: COc1ccc(OC)c(/C=C/C(=O)N/N=C/c2ccccc2)c1
Scale unit: µM
GI50: 5.22

Compound: COc1ccc(OC)c(/C=C/c2nnc(S)n2-c2ccc(Cl)cc2)c1
Scale unit: µM
GI50: 26.9

Compound: COc1ccc(OC)c(/C=C/c2nnc(Nc3ccc(Cl)cc3)o2)c1
Scale unit: µM
GI50: 30.5

Alright, here's another compound for you.
Retrieve GI50 on NCI-H322M; query `COc1ccc(OC)c(/C=C/C(=O)N/N=C/c2ccc(Cl)cc2)c1` 0.666

---

- Tested on: OVCAR-8
- Procedure details: Anticancer activity against Homo sapiens (human) OVCAR8 cells after 48 hr by SRB assay
- Assay type: functional
- Measurement conditions: OVCAR-8, 48 h
Assay endpoint: TGI (µM)
Give the number; µM is assumed, so skip it.

Compound: COc1ccc(OC)c(/C=C/c2nnc(Nc3ccc(Cl)cc3)o2)c1
Scale unit: µM
Result value: 21

Alright, here's another compound for you.
Please give the documented TGI of `COc1ccc(OC)c(/C=C/C(=O)N/N=C/c2ccccc2)c1` 94.6

---

- Tested on: Pseudomonas aeruginosa
- Procedure details: Antimicrobial activity against Pseudomonas aeruginosa ATCC 10145 after 48 hr by two-fold serial broth dilution method
- Type: functional
- Measurement conditions: ATCC 10145, 48 h
Assay endpoint: MBC (µg/mL)
Give the number; µg/mL is assumed, so skip it.

# annotated cases, reported MBC shown
Compound: COc1ccc(OC)c(/C=C/c2nnc(Nc3ccc(Cl)cc3)o2)c1
Experimental system: Pseudomonas aeruginosa
MBC [µg/mL]: 100

Compound: COc1ccc(OC)c(/C=C/C2=NN(C(C)=O)C(c3ccc(Cl)cc3)O2)c1 (centres undefined)
Experimental system: Pseudomonas aeruginosa
MBC [µg/mL]: 50

Compound: COc1ccc(OC)c(/C=C/c2nnc(S)n2-c2ccc(C)cc2)c1
Experimental system: Pseudomonas aeruginosa
MBC [µg/mL]: 50

Please give the documented MBC of `COc1ccc(OC)c(/C=C/c2nnc(Nc3ccc(Cl)cc3)s2)c1` 100

---

- Test system: UACC-62
- Procedure details: Anticancer activity against Homo sapiens (human) UACC62 cells after 48 hr by SRB assay
- Assay type: functional
- Measurement conditions: UACC-62, 48 h
Parameter: TGI. Scope: all listed entries.

# annotated cases, reported TGI shown
Compound: COc1ccc(OC)c(/C=C/c2nnc(S)n2-c2ccc(Cl)cc2)c1
Assay endpoint: TGI
Result value: > 100 µM
--
Compound: COc1ccc(OC)c(/C=C/c2nnc(Nc3ccc(Cl)cc3)o2)c1
Assay endpoint: TGI
Result value: > 100 µM
--
Compound: COc1ccc(OC)c(/C=C/C(=O)N/N=C/c2ccccc2)c1
Assay endpoint: TGI
Result value: 75.8 µM

Alright, here's another compound for you.
Please give the documented TGI of `COc1ccc(OC)c(/C=C/C(=O)N/N=C/c2ccc(Cl)cc2)c1` > 100 µM

---

- Tested on: HCC 2998
- Procedure details: Growth inhibition of Homo sapiens (human) HCC2998 cells at 10 uM after 48 hr by SRB assay
- Type: functional
- Measurement conditions: HCC 2998, 48 h, read-out: GI
Parameter: inhibition of growth at 10 µM. Scope: all listed entries.
Give the number; % is assumed, so skip it.

# annotated cases, reported inhibition of growth at 10 µM shown
Compound: COc1ccc(OC)c(/C=C/c2nnc(Nc3ccc(Cl)cc3)o2)c1
Experimental system: HCC 2998
inhibition of growth at 10 µM / %: 44.6
--
Compound: COc1ccc(OC)c(/C=C/C(=O)N/N=C/c2ccccc2)c1
Experimental system: HCC 2998
inhibition of growth at 10 µM / %: 33.6
--
Compound: COc1ccc(OC)c(/C=C/c2nnc(S)n2-c2ccc(Cl)cc2)c1
Experimental system: HCC 2998
inhibition of growth at 10 µM / %: 54.4

Alright, here's another compound for you.
Please give the documented inhibition of growth at 10 µM of `COc1ccc(OC)c(/C=C/C(=O)N/N=C/c2ccc(Cl)cc2)c1` 97.7

---

- System: KM12
- Procedure details: Growth inhibition of Homo sapiens (human) KM12 cells at 10 uM after 48 hr by SRB assay
- Type: functional
- Measurement conditions: KM12, 48 h, read-out: GI
Parameter: inhibition of growth at 10 µM. Scope: all listed entries.
Give the number; % is assumed, so skip it.

# annotated cases, reported inhibition of growth at 10 µM shown
Compound: COc1ccc(OC)c(/C=C/c2nnc(SC)n2-c2ccc(Cl)cc2)c1
Experimental system: KM12
inhibition of growth at 10 µM / %: 46.9

Compound: COc1ccc(OC)c(/C=C/C(=O)N/N=C/c2ccc(Cl)cc2)c1
Experimental system: KM12
inhibition of growth at 10 µM / %: 82

Compound: COc1ccc(OC)c(/C=C/c2nnc(S)n2-c2ccc(Cl)cc2)c1
Experimental system: KM12
inhibition of growth at 10 µM / %: 59.1

Alright, here's another compound for you.
Retrieve inhibition of growth at 10 µM on KM12; query `COc1ccc(OC)c(/C=C/C(=O)N/N=C/c2ccccc2)c1` 69

---

- Tested on: HT-29
- Procedure details: Anticancer activity against Homo sapiens (human) HT-29 cells after 48 hr by SRB assay
- Format: functional
- Measurement conditions: HT-29, 48 h
Assay endpoint: TGI (µM)
Give the number; µM is assumed, so skip it.

Compound: COc1ccc(OC)c(/C=C/c2nnc(Nc3ccc(Cl)cc3)o2)c1
Assay endpoint: TGI
Result value: 28.3

Alright, here's another molecule for you.
Please give the documented TGI of `COc1ccc(OC)c(/C=C/C(=O)N/N=C/c2ccc(Cl)cc2)c1` 1.52
